MEASURED TARGET: T1, Secreted Protein, Acidic, Rich in Cysteines (SPARC) (UniProt P09486 18-303)
T1 construct: also called osteonectin; SPARC protein
T1 sequence (looked up): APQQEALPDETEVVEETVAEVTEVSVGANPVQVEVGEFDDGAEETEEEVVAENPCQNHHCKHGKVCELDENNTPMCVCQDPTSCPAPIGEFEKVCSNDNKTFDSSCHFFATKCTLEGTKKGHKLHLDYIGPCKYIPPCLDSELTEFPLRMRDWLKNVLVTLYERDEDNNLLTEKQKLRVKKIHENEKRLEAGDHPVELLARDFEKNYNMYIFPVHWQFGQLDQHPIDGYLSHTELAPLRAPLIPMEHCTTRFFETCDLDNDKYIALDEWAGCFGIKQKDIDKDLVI
MEASUREMENT PROTOCOL: phage display panning on immobilised SPARC; times isolated among 134 sequenced clones
Give Count for every item shown.
Give the figure only, with no unit attached.

Consider AHPWRYTEPWSW (also called clone 101; clone 154) . Its measured Count is 6

VPATRVSPTPYA (also called clone 133) has a reported Count of 1

Reported Count of IDKPLHVVLALG (also called clone 184) : 2

VTPLLKFRALSS (12-mer from the Ph.D.-12 phage library; The peptide was cloned into pFUSE-hIgG1-Fc2 and expressed as the PD 21-Fc fusion; also called peptide 21; PD 21-Fc) [PD 21] has a reported Count of 2
